test system: iAstro (astrocyte control); test: area under dose-response curve of % growth inhibition (log2 RLU vs DMSO / staurosporine), 1e-11 to 1e-4 M (% x log10 M); higher = more growth inhibition
outcome measure: area under dose-response curve
Give bare numbers.

O=C(Nc1ccc(Nc2nccc(Nc3cc(C4CCCC4)[nH]n3)n2)cc1)Nc1cccc(C(F)(F)F)c1 :: 213
CO[C@H]1C[C@@H]2CC[C@@H](C)[C@@](O)(O2)C(=O)C(=O)N2CCCC[C@H]2C(=O)O[C@H]([C@H](C)C[C@@H]2CC[C@@H](OC(=O)C(C)(CO)CO)[C@H](OC)C2)CC(=O)[C@H](C)/C=C(\C)[C@@H](O)[C@@H](OC)C(=O)[C@H](C)C[C@H](C)/C=C/C=C/C=C/1C :: 101
c1ccc2c(-c3cnn4cc(-c5ccc(N6CCNCC6)cc5)cnc34)ccnc2c1 :: 137
Cc1noc2c1-c1ccccc1C(c1ccc(Cl)cc1)=N[C@H]2CC(N)=O :: 67
C#Cc1cccc(Nc2ncnc3cc(OCCOC)c(OCCOC)cc23)c1 :: 29.7
Cn1cnc([N+](=O)[O-])c1Sc1ncnc2[nH]cnc12 :: 6.8
CN(C)C/C=C/C(=O)Nc1cc2c(Nc3ccc(F)c(Cl)c3)ncnc2cc1O[C@H]1CCOC1 :: 80.2

Then this molecule:
(Q) Tell me reported area under dose-response curve for Cc1ccc(C(=O)Nc2ccc(CN3CCN(C)CC3)c(C(F)(F)F)c2)cc1C#Cc1cnc2cccnn12 , tested with iAstro.
(A) 128

---

Would you mind telling me the reported maximal growth inhibition of each entry?
tested on: HGGX6 (H3.3 G34R paediatric high-grade glioma line); experiment: maximal growth inhibition (yFin) relative to DMSO / staurosporine; higher = more efficacious
Numbers only, in %.

CC(=O)N1CCN(c2ccc(OCC3COC(Cn4ccnc4)(c4ccc(Cl)cc4Cl)O3)cc2)CC1 (stereo not given) :: 56.7
CO[C@H]1C[C@@H]2CC[C@@H](C)[C@@](O)(O2)C(=O)C(=O)N2CCCC[C@H]2C(=O)O[C@H]([C@H](C)C[C@@H]2CC[C@@H](OC(=O)C(C)(CO)CO)[C@H](OC)C2)CC(=O)[C@H](C)/C=C(\C)[C@@H](O)[C@@H](OC)C(=O)[C@H](C)C[C@H](C)/C=C/C=C/C=C/1C :: 58
Cc1ccc(C(=O)Nc2ccc(CN3CCN(C)CC3)c(C(F)(F)F)c2)cc1C#Cc1cnc2cccnn12 :: 97.4
Nc1nccc(-c2c(-c3ccc(F)cc3)ncn2C2CCCCC2)n1 :: 21
C#CCC(Cc1cnc2nc(N)nc(N)c2n1)c1ccc(C(=O)N[C@@H](CCC(=O)O)C(=O)O)cc1 (stereo not given in full) [PRALATREXATE] :: 22.1
COCC1(CO)C(=O)C2CCN1CC2 (stereo not given) :: 90.1
COc1cc2c(NC3CCN(C(C)C)CC3)nc(N3CCC(F)(F)CC3)nc2cc1OCCCN1CCCC1 :: 72.8
COc1cc2nc(N3CCCC3)nc(NCCCCCN3CCCC3)c2cc1OC :: 70.1

I have 7 molecules here; please give me maximal growth inhibition for each one.
1. NC(=O)Nc1sc(-c2ccc(F)cc2)cc1C(N)=O
2. [O-][n+]1ccccc1[S-].[O-][n+]1ccccc1[S-].[Zn+2]
3. CNC(=O)c1cc(Oc2ccc(NC(=O)Nc3ccc(Cl)c(C(F)(F)F)c3)cc2)ccn1
4. CCN1CCN(Cc2ccc(Nc3ncc(F)c(-c4cc(F)c5nc(C)n(C(C)C)c5c4)n3)nc2)CC1
5. N=C(N)c1ccc(OCCCCCOc2ccc(C(=N)N)cc2)cc1
6. O=C(CCCCCCC(=O)Nc1ccccc1)NO
7. COc1cc(Nc2c(C#N)cnc3cc(OCCCN4CCN(C)CC4)c(OC)cc23)c(Cl)cc1Cl

(A)
[22.5, 75.7, 75.3, 69.4, 33.1, 76.9, 75.7]
